A collection of compounds and their measured melting point

// solved cases for melting point follow
chemical_string=CCCCc1nc2c(N)nc3ccccc3c2n1CCCNS(C)(=O)=O measured_parameter="melting point" value_measured="239 to 241 °C"
chemical_string=COCOC(c1cc(CBr)ccc1I)(C(F)(F)F)C(F)(F)F measured_parameter="melting point" value_measured="93 °C"

Given item NS(=O)(=O)c1cccc(C(=O)C(F)(F)F)c1 , the value recorded as its melting point is 88.4 to 89.1 °C

* * *

measured.parameter: melting point

The reported melting point of the compound COC(=O)CCC(=O)c1ccc(OC(=S)N(C)C)cc1 was 62 to 64 °C

For record CCc1c(OC)nc(OC)nc1C(=O)c1cc(C)cc(CO)c1 the listed melting point is 101 to 103 °C

The reported value for CCOC(=O)C(C(=O)OC(C)C)=C1SC=CS1 in terms of melting point is 54 °C

* * *

Measured melting point accompanies every entry in the list below.

compound=CCOC(=O)c1c(C)nc(S)c([N+](=O)[O-])c1NCCCN(C)C value_measured="131 to 132 °C"

Form: compound = COc1ccc(-c2cc(C(=O)C(F)(F)F)[nH]c2-c2ccc(OC)cc2)cc1 ; melting point = 185 to 186 °C

Record summary for C[C@@H]1CN(C(=O)OC(C)(C)C)Cc2cc3cc(Br)c(F)cc3n21 : reported melting point = 116 to 118 °C

# melting point of Cc1nc(N2C[C@@H](C)N(Cc3cc(F)cc(F)c3)C2=O)sc1C(=O)NCc1ccccn1 = 147 to 148 °C

# melting point of NS(=O)(=O)c1cc(CCNC(=O)/C=C/c2cccs2)ccc1OCCOC(F)(F)F = 203 to 205 °C

# melting point (compound: OC(CCCN1CCN(c2ncc(F)cn2)CC1)c1ccc(F)c2ccccc12 (configuration not stated) ) is 129 to 131 °C

* * *

Non-standard residues stand in square brackets, D forms with d. Residues, ends and D or L forms follow the SMILES beside them. Hyp = O=C(O)[C@@H]1C[C@@H](O)CN1
measured.parameter: melting point

See these solved cases before continuing.
molecule="CCOC(=O)C1=C(C)Nc2ccnc(OC(C)C)c2C1c1cccc([N+](=O)[O-])c1 (stereo not drawn)" value_measured="180 to 182 °C"
molecule=NC(=O)c1ccc(Nc2ccncc2)cc1 value_measured="223 to 226 °C"
molecule=Cc1ccccc1-n1c(-c2sc(Nc3ccccc3)nc2C)nc2ccccc2c1=O value_measured="227 to 228 °C"
molecule=N#Cc1ccc(C=CC(=O)c2ccccc2N)cc1 value_measured="126 to 128 °C"
molecule="CCCCCCCCCCCCCCCCNc1ccc(C(=O)OC2COC(c3ccccc3)OC2)cc1 (stereo not drawn)" value_measured="115 to 117 °C"
molecule=Cc1nc(NC(=O)c2cnn3c(C(F)F)cc(-c4ccc(C(F)(F)F)cc4)nc23)sc1S(=O)(=O)NCCO value_measured="134 °C"
molecule=COc1ccccc1OCCCOS(N)(=O)=O value_measured="80 to 83 °C"
molecule="CC1=C(C(=O)O)N2C(=O)C(NC(=O)Cc3ccc(CN=[N+]=[N-])cc3)C2SC1 (stereo not drawn)" value_measured="154 to 155 °C"

Please fill in: melting point reported for c1cc2cc(-c3nnn[nH]3)ccc2[nH]1 = 205 °C

// COc1ccc(N2CCN(c3c(C)c(C)c4c(c3C)C(O)(c3ccc(OC)cc3)C(C)(C)O4)CC2)cc1 (stereo not drawn) : melting point value = 157 to 159 °C

Entry under test: COC(=O)c1nccc2c1[nH]c1ccc(Oc3ccc([N+](=O)[O-])cn3)cc12 . Its melting point was 150 to 155 °C

Measured melting point of NCC(=O)N1C[C@H](O)C[C@H]1C(=O)N[C@@H](CCC(=O)O)C(=O)O (H-Gly-[Hyp]-Glu-OH) : 158 to 160 °C

Memo: ON=C(Cc1ccccc1)c1ccc(Cl)c(Cl)c1 , reported melting point: 81 to 82 °C

* * *

Below: a set of entries, each annotated with reported melting point.

chemical_string=N#CC(=NOC(=O)OCC(Cl)(Cl)Cl)c1ccccc1 measured_parameter="melting point" value_measured="82 to 84 °C"
chemical_string=CC(C)(C)Oc1ccc(CCC(=O)NCCC(=O)O)cc1 measured_parameter="melting point" value_measured="70 to 72 °C"
chemical_string=CC1(C)COC(c2ccccc2-c2ccc(-c3ccccc3)cc2)=N1 measured_parameter="melting point" value_measured="95 to 97 °C"

The compound identified as CC(C)n1nc(-c2sc(NC(=O)CNCCO)nc2-c2ccccc2)ccc1=O registered its melting point at 142 to 144 °C

Looking up COC(=O)c1sc2nc(-c3ccccc3)cnc2c1N , I see its melting point listed as 197 to 198 °C

Noted for CCCCc1nc2c(n1Cc1ccc(C(=O)OC)cc1)C[C@@H](C(=O)O)N(C(=O)C(c1ccccc1)c1ccccc1)C2 : its melting point reads 176 to 180 °C

* * *

measured.parameter: melting point

molecule=Cc1nc2cnccc2n1-c1ccc(C=Cc2cccc(OCc3nc4cc(F)ccc4s3)c2)cc1 measured_parameter="melting point" value_measured="178 to 181 °C"
molecule="CN1CCN(C(=O)CC2(C)OCCc3c2[nH]c2ccccc32)CC1 (centres undefined)" measured_parameter="melting point" value_measured="80 to 84 °C"
molecule=CC1(C)C=C(c2c(N)c(=O)c2=O)c2cc(C#N)ccc2O1 measured_parameter="melting point" value_measured="> 250 °C"
molecule=COc1ccnc(CCc2nc3cc(-c4ccc(O)cc4)cnc3[nH]2)c1 measured_parameter="melting point" value_measured="206 to 208 °C"
molecule="CCCCCC(c1nccn1CC(=O)O)n1cnc2cc(-c3ccccc3-c3nn[nH]n3)ccc21 (centres undefined)" measured_parameter="melting point" value_measured="150 to 160 °C"

Briefly, melting point measured for CC1(OC(=O)c2ncn3c2C2CCCN2C(=O)c2c(Cl)cccc2-3)CCCC1 (centres undefined) : 190 to 191 °C

# melting point (molecule: COC(=O)c1ccc(Nc2ccc(C#N)cc2N)cc1 ) is 164 to 165 °C

melting point for O=Cc1cc(C#Cc2cccc(Br)c2)c[nH]1 is 152 to 156 °C

So, O=C1N=c2cccc(OCCN3CCC(Cc4ccccc4)CC3)c2=NC1=O ? Its melting point was 244 to 245 °C

* * *

measured.parameter: melting point

melting point recorded for this compound, CC(C)(C)C1CSC2(CCC(C=C(Br)Br)CC2)SC1 (stereo not given) , is 143 °C

In plain terms, CC1Cc2c([nH]c3ccccc23)-c2nc3c(c(=O)n21)CCCC3 (stereo not given) has a documented melting point of 232 °C

response.value for Cc1coc2c1C(=O)CC(c1ccco1)C2 (stereo not given) (field: melting point) = 60 to 61 °C

melting point reported for this compound CC(C)Oc1ccc(-n2c(C(=O)O)c(C(=O)O)c3cc(Oc4cccc(Cl)c4)ccc32)cc1 : 182 to 190 °C

Reported melting point for O=c1c2c(Cl)cc(Cl)cc2n(Cc2ccccc2)c(=O)n1Cc1cccc(Cl)c1 was 123 to 129 °C

Lab note: measured melting point of CC12CCC(CN([Si](C)(C)C)S(=O)(=O)C1)C2(C)C (single isomer, unassigned; (-)) was 63 to 73 °C

Documented melting point of COC1CN(C(=O)c2cc(-c3ccccc3)c(=O)n3nc(C)c4ccsc4c23)C1 : 169 to 170 °C

Measured melting point of Cc1ccc(C(Br)C(Br)C(=O)c2ccccc2)cc1 (stereo not given) : 84 °C

The compound identified as CC1(C)C2CCC1(CCCC(=O)O)CC2 registered its melting point at 72 to 73 °C

Sure, the documented melting point for NS(=O)(=O)c1ccc2c(c1)C(=O)CCC2 is 197 to 198 °C

Data point: CNc1cc(Oc2cccc(C(F)(F)F)c2)nc(C(=O)Nc2ccccc2)c1 ; melting point = 158 to 160 °C

The compound listed as CC1(C)COC(=O)N1c1nc(-c2csc(C#N)c2)cs1 has a reported melting point of 249 to 252 °C

Value of melting point reported for the compound COc1cn(-c2ccc(C3=CCOCC3)cc2F)nc(-c2ccnn2-c2ccccc2)c1=O is 229 to 231 °C

Please fill in: melting point reported for CCN(c1nc(C)cc(C)n1)c1c(O)cc(OC)cc1Br = 157 to 160 °C

// sample COCCC(=O)N[C@H]1CC[C@H](CCN2CCN(c3nc(C)cc4occc34)CC2)CC1 , its melting point was 158 °C

The compound listed as C=C(Cl)CONC(=O)c1nc(-c2ccc(Cl)c(OC)c2F)cc(N)c1Cl has a reported melting point of 146 to 148 °C

The measured melting point associated with COc1ccc(NC(=O)c2ccc(C(C)(C)C#N)cc2)cc1 reads 164 to 168 °C

get_value(item= CCOC(=O)c1cc(=O)c(-c2ccc(OCc3ccccc3)c(OCc3ccccc3)c2)co1 , readout=melting point) returns 122 to 125 °C
